assay: protein stability index of a GFP-peptide fusion (yeast GPS) (PSI 1-4); higher = more stable; sorted into four equal gates, so the index is relative within each strain; conditions: doa10∆
REPORTED_PROPERTY: protein stability index

> print(dat)
                        sequence.entry        reported.property  number
 1            FYRGNYTDFENTFQKTV [FAS1]  protein stability index    2.41
 2           KNWQNVGSLVVKSSMGP [RPL1A]  protein stability index     2.1
 3           PSAEIREAYIENFAKGE [SWP82]  protein stability index    2.39
 4           AKSISTSAKEPSENDVF [RPO31]  protein stability index    2.99
 5           KALLFFNNEKETEKFAL [RPN12]  protein stability index    3.25
 6            INNLPPEKEASSATIVL [YCG1]  protein stability index    2.55
 7            KSNGSSDDDNIGQSEEL [ISW2]  protein stability index     3.3
 8  QPVNINLDSSITQDGKF [YMR129W/POM152]  protein stability index    2.92
 9            MLPPKSVKFTHIAHTLP [SSN2]  protein stability index    1.57
10           IVQIDATPFRQWFEAHY [RPS8A]  protein stability index    2.42
11  PSASLKLHHDLKLCLGD [YMR129W/POM152]  protein stability index    3.06
12            VDSRTKIRMLTQAAEFL [IRR1]  protein stability index    2.47
13    GTENTERPPLLPILPIQ [YOR098C/NUP1]  protein stability index    2.42
14            IVHHPYQSLKQIVQVLK [SSN8]  protein stability index    1.24

###

test: protein stability index of a GFP-peptide fusion (yeast GPS) (PSI 1-4); higher = more stable; sorted into four equal gates, so the index is relative within each strain; details: doa10∆
Outcome: fulfilled for protein stability index of at least 3; not fulfilled for anything lower.

> print(dat)
                        sequence.entry    label.value
 1          LSRPSLPKIKTVRKSIA [RPL35A]  not fulfilled
 2  NENENFGYDIPLLDIVL [YML103C/NUP188]  not fulfilled
 3  EITDASLNLQYVNYEIS [YML103C/NUP188]  not fulfilled
 4            TQLKKRAVSGVELRIYV [POP7]  not fulfilled
 5            EEYDDDDDNSNVDYYNV [SNF2]  not fulfilled
 6            PHGISVFLSNLVETCLN [BRR2]  not fulfilled
 7            LKLCVQELEKRMPMDFK [PRE1]      fulfilled
 8            DSVAAIGIPVNKASLAQ [QCR2]  not fulfilled
 9            THLHEALDIVCSDFVKI [NUT1]  not fulfilled
10            LKRNRIRNARSIRAEAV [POP1]  not fulfilled
11   PTTTTGGLFGNSAQNNS [YGR119C/NUP57]      fulfilled
12    LNLQFKAKVDDLVLGKP [YLR335W/NUP2]  not fulfilled
13           KTPLLKQYLSASFSLKN [RPL6A]  not fulfilled
14           KLLGIGDIESLFEQLQT [SRP54]  not fulfilled
15          NSRNAIRKLVKNGTIVK [RPL19A]  not fulfilled
16            ESDSKLQCHISGTTNFM [UBP6]  not fulfilled
17            PAITIEKLKQFSWISVV [SIR3]  not fulfilled
18            LDRRFEIFFKKDSLWQS [FAS1]      fulfilled
19           EINSEDYDNKTKLIGVL [SRP68]      fulfilled
20            KLLDDNPTEFDWPTYVD [SRB8]      fulfilled
21            PTMYTRLCICSGMLFEM [SIN4]  not fulfilled
22            VEDALDKDSTKEVASLP [FAS2]      fulfilled
23            DKQARKQRTKKEDKSEA [SNF2]      fulfilled
24            WGEQKKAMSSRAGVSQV [RPB2]      fulfilled

###

experiment: protein stability index of a GFP-peptide fusion (yeast GPS) (PSI 1-4); higher = more stable; sorted into four equal gates, so the index is relative within each strain; conditions: pdr5∆
Outcome: Met for protein stability index of at least 3; Not met for anything lower.

> print(dat)
                        sequence.entry  label.value
 1           VNVEKFNVEYFAKEKLT [RPL6A]      Not met
 2            SPPPQTHQSPPPPPQQS [SNF5]      Not met
 3            LMRQGVLGIKVKIMRDP [RPS3]      Not met
 4            FSLLVKAEIPPEYAKVG [SIN4]      Not met
 5          RHLEKEGIIKPISKHSK [RPS25A]          Met
 6            AKHAVSEGTRAVTKYSS [HTB1]          Met
 7            SIPPATIETFNEAALVV [RPB5]      Not met
 8           QRQYKVQLLLHINSILL [SNF11]      Not met
 9            LFKYQGHIGAYLIVAGV [PUP1]      Not met
10           LTSVTRHGFNRSNTGAL [RPO21]      Not met
11           VAQLKPFFKYIDDANVT [RPC37]      Not met
12            STKRVTKHPSLKTLTHK [POP7]      Not met
13            LGQLYVTMGAKDKLREF [RPN6]          Met
14           INQKALRKIQALRDVKN [GAL11]      Not met
15            LQYIIHDTLNNEIANSI [BRR2]      Not met
16           CNEEQTLEAKIGGLLSK [RPO31]          Met
17  HMDYDGNIVKEFENKFQ [YMR129W/POM152]          Met
18           LQHLRSRCHLVTKDTKK [SRP68]      Not met
19            MNLQNNVLNQIHQILLP [CSE2]      Not met
20            WKFKSLIEILRLRALQL [RRI2]      Not met
21            CIQVNCLNCEKSKLFEW [SNM1]          Met
22            SELAPIEEHPTVVDAID [IRR1]          Met
23            LLLRCDDRVDKKFVSQI [POP3]          Met
24           QNVISLGSLTVEDYLSS [RPC82]      Not met
25           SKKGKPTVNKKPKNKKK [SRP72]      Not met
26            AKKTSTSTDGKKRSKAR [HTB1]          Met
27            EDLFETISQALLNAADR [PUP3]      Not met
28            KDKFNQIPLHRAASVGS [NAS6]      Not met
29            IGSQRGRRLSMLASQAN [DSN1]      Not met
30            QPIVTGTSVISMKYDNG [PRE4]      Not met
31            QSQQAQPSDVMFNDLNS [MED2]          Met
32           QLDLCKLYFQLFLNTGC [SRP68]      Not met
33            KIRARSITLQGDVYDPE [SMC2]      Not met
34          ARIFEFPKTTVAALRFT [RPL18A]      Not met
35            QNPLNKSQNTALPSTHK [SIR4]      Not met
36            DLSEKILNDIETLEHNP [BRR2]          Met
37           TSTDFPGFSKDAENEWN [RPC40]          Met
38   SLGSSSTTASGTTATGT [YGR119C/NUP57]          Met
39           FDKVIYHLHPTFANPNR [TAF14]      Not met
40            PHGFPSRMTVGKMIELI [RET1]      Not met
41            LEVGRRFSPDEDFEHNN [MCD1]          Met
42            EDVALNEQVKKFFLNNV [NAS6]      Not met
43           VVTMSVKSVNDPSQNRL [RPC37]      Not met
44           LQQICRVRNKDIRKFLD [RPL9A]      Not met
45  AKSMAFLKEVLSDLSSP [YML103C/NUP188]          Met
46            MFFIKDLSLNITLHPSF [RPB7]      Not met
47            GVIALGQFVTLGCTLVT [RMP1]      Not met
48            ELENNEFTENELNVDSM [ITC1]          Met
49            IYSRDIGAELKREESES [SNF2]          Met
50          PKLLDALNKISKYYPGV [SNU114]      Not met
51            YNILGNLGIPKIAYRGV [SSN2]      Not met
